Tested on: Danio rerio larvae (5 dpf)
assayProtocol: habituation (activity change first vs second 5 min of 1-s interval sound, period 17) minus DMSO control (percentage points); higher = larger habituation measure than DMSO larvae
runParameters: 10 µM; exposure time: 3 h pre-incubation + 3 h imaging
Counter-ions that a name gives are not always drawn.
Please use 1 whenever habituation is not below 1, and 0 whenever it is.

Task item: Evaluate CN(C)CCc1c[nH]c2ccc(Cn3cncn3)cc12 [Rizatriptan benzoate] : habituation at minimum 1?
Reply: 0

Task item: Evaluate C[C@@H](O[C@H]1OCCN(Cc2n[nH]c(=O)[nH]2)[C@H]1c1ccc(F)cc1)c1cc(C(F)(F)F)cc(C(F)(F)F)c1 [Aprepitant] : habituation at minimum 1?
Reply: 1

Task item: Evaluate CC(C)N(CCCCOCC(=O)NS(C)(=O)=O)c1cnc(-c2ccccc2)c(-c2ccccc2)n1 [Selexipag] : habituation at minimum 1?
Reply: 0

Task item: Evaluate CCOc1nc2cccc(C(=O)O)c2n1Cc1ccc(-c2ccccc2-c2noc(=O)[nH]2)cc1 [Azilsartan] : habituation at minimum 1?
Reply: 1

Task item: Evaluate N#Cc1ccc(C(c2ccc(C#N)cc2)n2cncn2)cc1 [Letrozole] : habituation at minimum 1?
Reply: 1

Task item: Evaluate O=C(O[C@@H]1C[C@@H]2C[C@H]3C[C@H](C1)N2CC3=O)c1c[nH]c2ccccc12 [Dolasetron mesylate] : habituation at minimum 1?
Reply: 1

Task item: Evaluate CN/C(=N\CCSCc1nc[nH]c1C)NC#N [Cimetidine] : habituation at minimum 1?
Reply: 1

Task item: Evaluate CC(C)c1ccc2oc3nc(N)c(C(=O)O)cc3c(=O)c2c1 [Amlexanox] : habituation at minimum 1?
Reply: 0

Task item: Evaluate CCC(=O)O[C@]1(C(=O)SCF)[C@H](C)C[C@H]2[C@@H]3C[C@H](F)C4=CC(=O)C=C[C@]4(C)[C@@]3(F)[C@@H](O)C[C@@]21C [Fluticasone propionate] : habituation at minimum 1?
Reply: 1

Task item: Evaluate CCOC(=O)[C@H](CCc1ccccc1)N[C@@H](C)C(=O)N1[C@H](C(=O)O)C[C@@H]2CCC[C@@H]21 [Ramipril] : habituation at minimum 1?
Reply: 0

Task item: Evaluate CCCc1nc(C(C)(C)O)c(C(=O)O)n1Cc1ccc(-c2ccccc2-c2nnn[nH]2)cc1 [Olmesartan] : habituation at minimum 1?
Reply: 1

Task item: Evaluate CC(C)c1nc(N(C)S(C)(=O)=O)nc(-c2ccc(F)cc2)c1/C=C/[C@@H](O)C[C@@H](O)CC(=O)O [Rosuvastatin calcium] : habituation at minimum 1?
Reply: 1

Task item: Evaluate C/C(O)=C(\C#N)C(=O)Nc1ccc(C(F)(F)F)cc1 [Teriflunomide] : habituation at minimum 1?
Reply: 0

Task item: Evaluate C[C@]12CC[C@@H]3c4ccc(O)cc4C[C@@H](CCCCCCCCC[S+]([O-])CCCC(F)(F)C(F)(F)F)[C@H]3[C@@H]1CC[C@@H]2O (stereo partly drawn) : habituation at minimum 1?
Reply: 0

Task item: Evaluate NC(=O)c1ncn([C@@H]2O[C@H](CO)[C@@H](O)[C@H]2O)n1 [Ribavirin] : habituation at minimum 1?
Reply: 0

Task item: Evaluate CC#C[C@]1(O)CC[C@H]2[C@@H]3CCC4=CC(=O)CCC4=C3[C@@H](c3ccc(N(C)C)cc3)C[C@@]21C [Mifepristone] : habituation at minimum 1?
Reply: 0

Task item: Evaluate CC(C)(C(=O)c1cccnc1)c1cccnc1 [Metyrapone] : habituation at minimum 1?
Reply: 0

Task item: Evaluate CC[C@H](C)C(=O)O[C@H]1C[C@@H](C)C=C2C=C[C@H](C)[C@H](CC[C@@H]3C[C@@H](O)CC(=O)O3)[C@H]21 [Lovastatin] : habituation at minimum 1?
Reply: 0

Task item: Evaluate CC(C)n1c(/C=C/C(O)CC(O)CC(=O)O)c(-c2ccc(F)cc2)c2ccccc21 (stereo not drawn) [Fluvastatin sodium] : habituation at minimum 1?
Reply: 1

Task item: Evaluate CC(=O)O[C@]1(C(C)=O)CC[C@H]2[C@@H]3C=C(C)C4=CC(=O)CC[C@]4(C)[C@H]3CC[C@@]21C [Megestrol Acetate] : habituation at minimum 1?
Reply: 0

Task item: Evaluate C[C@H](Cc1cc2c(c(C(N)=O)c1)N(CCCO)CC2)NCCOc1ccccc1OCC(F)(F)F [Silodosin] : habituation at minimum 1?
Reply: 1

Task item: Evaluate Nc1nc(F)nc2c1ncn2[C@@H]1O[C@H](CO)[C@@H](O)[C@@H]1O [Fludarabine] : habituation at minimum 1?
Reply: 0

Task item: Evaluate Nc1ncn([C@@H]2O[C@H](CO)[C@@H](O)[C@H]2O)c(=O)n1 [5-Azacytidine] : habituation at minimum 1?
Reply: 0

Task item: Evaluate COC(=O)C1=C(C)NC(C)=C(C(=O)OC(C)C)C1c1cccc2nonc12 (stereo not drawn) [Isradipine] : habituation at minimum 1?
Reply: 0

Task item: Evaluate Nc1nc2c(ncn2COCCO)c(=O)[nH]1 [Acyclovir] : habituation at minimum 1?
Reply: 1

Task item: Evaluate Cc1ccc(-c2cc(C(F)(F)F)nn2-c2ccc(S(N)(=O)=O)cc2)cc1 [Celecoxib] : habituation at minimum 1?
Reply: 0

Task item: Evaluate CCN(CC)CCNC(=O)c1c(C)[nH]c(/C=C2\C(=O)Nc3ccc(F)cc32)c1C [Sunitinib malate] : habituation at minimum 1?
Reply: 1

Task item: Evaluate NS(=O)(=O)Cc1noc2ccccc12 [Zonisamide] : habituation at minimum 1?
Reply: 1

Task item: Evaluate Cc1cccc(C)c1OCC(C)N (stereo not drawn) [Mexiletine hydrochloride] : habituation at minimum 1?
Reply: 1

Task item: Evaluate COC(c1ccccc1)(c1ccccc1)[C@H](Oc1nc(C)cc(C)n1)C(=O)O [Ambrisentan] : habituation at minimum 1?
Reply: 1

Task item: Evaluate Nc1nc(NC2CC2)c2ncn([C@H]3C=C[C@@H](CO)C3)c2n1 [Abacavir hemisulfate] : habituation at minimum 1?
Reply: 1

Task item: Evaluate CN(C)CC/C=C1/c2ccccc2COc2ccc(CC(=O)O)cc21 [Olopatadine hydrochloride] : habituation at minimum 1?
Reply: 0

Task item: Evaluate "Brc1c(NC2=NCCN2)ccc2nccnc12" : habituation at minimum 1?
Reply: 0
